Here the recorded zone of inhibition at 400 µg/disc is given for each entry.
- Tested on: Bacillus subtilis
- test-protocol: Antibacterial activity against Bacillus subtilis ATCC 6633 at 400 ug/disc after 18 hrs by disc diffusion assay
- Type: functional
- test-conditions: ATCC 6633, 18 h, read-out: IZ
Only the number, expressed in mm, is required.

Supply measured zone of inhibition at 400 µg/disc of "CC[C@@]1([C@@H]2O[C@@H]([C@H]3O[C@@](O)(CO)[C@H](C)C[C@@H]3C)C[C@@H]2C)CC[C@H]([C@]2(C)CC[C@]3(C[C@H](O)[C@@H](C)[C@@H]([C@@H](C)[C@@H](OC)[C@H](C)C(=O)O)O3)O2)O1" in your reply.
22

Others:
Supply measured zone of inhibition at 400 µg/disc of "CC[C@@]1([C@@H]2O[C@@H]([C@H]3O[C@@](O)(CO)[C@H](C)C[C@@H]3C)C[C@@H]2C)CC[C@H]([C@]2(C)CC[C@]3(C[C@H](O)[C@@H](C)[C@@H]([C@@H](C)[C@@H](OC)[C@H](C)C(=O)OCCN4CCOCC4)O3)O2)O1" in your reply.
27

Supply measured zone of inhibition at 400 µg/disc of "CC[C@@]1([C@@H]2O[C@@H]([C@H]3O[C@@](O)(CO)[C@H](C)C[C@@H]3C)C[C@@H]2C)CC[C@H]([C@]2(C)CC[C@]3(C[C@H](O)[C@@H](C)[C@@H]([C@@H](C)[C@@H](OC)[C@H](C)C(=O)OCCOCCOCCOC)O3)O2)O1" in your reply.
20

Supply measured zone of inhibition at 400 µg/disc of "C=CCOC(=O)[C@@H](C)[C@H](OC)[C@H](C)[C@H]1O[C@@]2(CC[C@@](C)([C@H]3CC[C@@](CC)([C@@H]4O[C@@H]([C@H]5O[C@@](O)(CO)[C@H](C)C[C@@H]5C)C[C@@H]4C)O3)O2)C[C@H](O)[C@H]1C" in your reply.
15
